system: galium (catchweed bedstraw, Galium aparine); test: Test C postemergence; type: in vivo; settings: 16 g ai/ha, scale 0 to 100, 0 is no effect, 100 is complete control
observation.type: Plant response rating, Galium

>>> value_measured("O=c1cccc(Oc2ncc(Cl)cn2)n1-c1ccc(C(F)(F)F)cn1 [Compound 7]")
45
>>> value_measured("O=c1cccc(Oc2ncc(Cl)cn2)n1-c1ccc(C(F)(F)F)cc1 [Compound 10]")
45
>>> value_measured("O=c1cccc(Oc2ncc(Cl)cn2)n1-c1ncc(Cl)cn1 [Compound 6]")
50
>>> value_measured("O=c1cccc(Oc2ncc(Cl)cn2)n1-c1ccc(Cl)cc1 [Compound 1]")
40

###

Listing: Plant response rating, Morningglory of selected compounds
tested on: morningglory (Ipomoea coccinea); experiment: Test C preemergence; type: in vivo; settings: 125 g ai/ha, scale 0 to 100, 0 is no effect, 100 is complete control
observation.type: Plant response rating, Morningglory

>>> value_measured("O=c1cccc(Oc2ncc(Cl)cn2)n1-c1ccc(C(F)(F)F)cn1 [Compound 7]")
25
>>> value_measured("O=c1cccc(Oc2ncc(Cl)cn2)n1-c1ncc(Cl)cn1 [Compound 6]")
55
>>> value_measured("O=c1cccc(Oc2ncc(Cl)cn2)n1-c1ccc(Cl)cc1 [Compound 1]")
15
>>> value_measured("O=c1cccc(Oc2ncc(Cl)cn2)n1-c1ccc(C(F)(F)F)cc1 [Compound 10]")
55

###

tested on: corn (Zea mays); assay: Test C preemergence; format: in vivo; settings: 62 g ai/ha, scale 0 to 100, 0 is no effect, 100 is complete control
observation.type: Plant response rating, Corn

>>> value_measured("O=c1cccc(Oc2ncc(Cl)cn2)n1-c1ncc(Cl)cn1")
0
>>> value_measured("O=c1cccc(Oc2ncc(Cl)cn2)n1-c1ccc(C(F)(F)F)cc1")
10
>>> value_measured("O=c1cccc(Oc2ncc(Cl)cn2)n1-c1ccc(C(F)(F)F)cn1")
10
>>> value_measured("O=c1cccc(Oc2ncc(Cl)cn2)n1-c1ccc(Cl)cc1")
0

###

# Plant response rating, Morningglory values compiled below
tested on: morningglory (Ipomoea coccinea); test: Test C preemergence; format: in vivo; details: 31 g ai/ha, scale 0 to 100, 0 is no effect, 100 is complete control
observation.type: Plant response rating, Morningglory

>>> value_measured("O=c1cccc(Oc2ncc(Cl)cn2)n1-c1ccc(C(F)(F)F)cc1")
0
>>> value_measured("O=c1cccc(Oc2ncc(Cl)cn2)n1-c1ccc(Cl)cc1")
0
>>> value_measured("O=c1cccc(Oc2ncc(Cl)cn2)n1-c1ncc(Cl)cn1")
5
>>> value_measured("O=c1cccc(Oc2ncc(Cl)cn2)n1-c1ccc(C(F)(F)F)cn1")
0

###

test system: giant foxtail (Setaria faberii); test: Test C postemergence; type: in vivo; conditions: 62 g ai/ha, scale 0 to 100, 0 is no effect, 100 is complete control
observation.type: Plant response rating, Foxtail, Giant

>>> value_measured("O=c1cccc(Oc2ncc(Cl)cn2)n1-c1ccc(Cl)cc1")
10
>>> value_measured("O=c1cccc(Oc2ncc(Cl)cn2)n1-c1ccc(C(F)(F)F)cn1")
15
>>> value_measured("O=c1cccc(Oc2ncc(Cl)cn2)n1-c1ccc(C(F)(F)F)cc1")
10
>>> value_measured("O=c1cccc(Oc2ncc(Cl)cn2)n1-c1ncc(Cl)cn1")
5
